tested on: PfAP2-EXP AP2 domain (GST-tagged); test: gcPBM binding intensity (ln(normalized median fluorescence intensity)); higher = stronger DNA binding
In all, about 25,000 sequences were measured (“ln(normalized median fluorescence intensity)”: median about 8.6, highest 2% from about 10 on). The sample as a whole holds a higher share of the highest values than the screen did.
Each entry below carries its recorded gcPBM binding intensity (ln).

ORDERED RESIDUES: AATAAAATATAAACATTATATATATATATATATATA [GTGCAC_negctrl_site58]
gcPBM binding intensity (ln): 10.3
//
ORDERED RESIDUES: TAAATAAAAAAACACACACACATATATATATATATA [CACACA_site2269]
gcPBM binding intensity (ln): 10.2
//
ORDERED RESIDUES: TAAATAAATAAAAAAACACACATATAAATATAAATA [CACACA_site7815]
gcPBM binding intensity (ln): 8.56
//
ORDERED RESIDUES: AAAAAATAAATAAACATAAATAAATAAATAAATATA [XGTACX_negctrl_site340]
gcPBM binding intensity (ln): 8.49
//
ORDERED RESIDUES: CATAAAATATAAAACACACACACATATATATATATA [CACACA_site223]
gcPBM binding intensity (ln): 10.2
//
ORDERED RESIDUES: AAAAATGGTGTTAACACACACATATAAATAAATATA [CACACA_site6412]
gcPBM binding intensity (ln): 8.44
//
ORDERED RESIDUES: TGTTTTTAAATTTAAATCAAAAAATAAAATAAAATA [GTGCAC_negctrl_site355]
gcPBM binding intensity (ln): 8.34
//
ORDERED RESIDUES: AAATTAAAATAATAATTCTACAAATTAATTTATCAT [XGTACX_negctrl_site44]
gcPBM binding intensity (ln): 7.97
//
ORDERED RESIDUES: TATAAATAAAAACACACACACACATATATATATATA [CACACA_site2268]
gcPBM binding intensity (ln): 9.99

###

tested on: PfAP2-EXP AP2 domain (GST-tagged); assay: gcPBM binding intensity (ln(normalized median fluorescence intensity)); higher = stronger DNA binding
In all, about 25,000 sequences were measured (“ln(normalized median fluorescence intensity)”: median about 8.6, highest 2% from about 10 on). This excerpt belongs to a sample that is enriched for the highest values.
Each entry below carries its recorded gcPBM binding intensity (ln).

ORDERED RESIDUES: TAATTATATGTATACACACACATACATTTACATAAC [CACACA_site3238]
gcPBM binding intensity (ln): 8.66
--
ORDERED RESIDUES: AAAAAAAATTAAAATAAAATATAAATATAAAATATA [GTGCAC_negctrl_site714]
gcPBM binding intensity (ln): 8.23
--
ORDERED RESIDUES: TATGTGCCAAAACACACACACATATATATATATATA [CACACA_site469]
gcPBM binding intensity (ln): 10.2
--
ORDERED RESIDUES: AAAAAACAAAAACACACACACACATATATATATATA [CACACA_site3654]
gcPBM binding intensity (ln): 9.94
--
ORDERED RESIDUES: ATATATATATATAACACACGCAAAAAAATTAAATAA [CACACA_site1400]
gcPBM binding intensity (ln): 9.96
--
ORDERED RESIDUES: CATATATAAAAAAACACACACATATATATATATATA [CACACA_site1195]
gcPBM binding intensity (ln): 10.2
--
ORDERED RESIDUES: TACAAAAAAATAAAAAAAATTAAATAAATAAATATA [CACACA_negctrl_site45]
gcPBM binding intensity (ln): 8.17
--
ORDERED RESIDUES: ATATATATATATATAACACACGCAAAAAAATTAAAT [CACACA_site8395]
gcPBM binding intensity (ln): 10.2
--
ORDERED RESIDUES: TCCTTATTTCATATTTTTAAATAATACAAAAAAAAA [CACACA_negctrl_site773]
gcPBM binding intensity (ln): 8.06
